SYSTEM TESTED: C-X-C chemokine receptor type 4 (Homo sapiens, UniProt P61073, Y255A)
Sequence (P61073 whole entry Y255A, the tested form may be a part): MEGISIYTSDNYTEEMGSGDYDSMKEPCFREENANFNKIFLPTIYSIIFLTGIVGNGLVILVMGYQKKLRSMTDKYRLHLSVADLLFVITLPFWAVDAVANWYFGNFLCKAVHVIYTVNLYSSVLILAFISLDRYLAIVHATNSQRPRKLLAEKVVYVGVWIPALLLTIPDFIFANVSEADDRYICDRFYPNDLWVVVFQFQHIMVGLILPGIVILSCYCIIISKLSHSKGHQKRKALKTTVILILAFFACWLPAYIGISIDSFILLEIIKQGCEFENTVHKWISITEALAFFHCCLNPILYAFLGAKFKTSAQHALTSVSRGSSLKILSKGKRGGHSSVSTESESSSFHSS
TEST DESCRIPTION: Displacement of [125I]12G5 antibody from transmembrane domain 6 of human CXCR4 Y255A mutant expressed in COS7 cells
Assay type: cell-based, COS-7
OBSERVABLE: Ki (nM)

{"COMPOUND": "c1ccc(CNCc2ccc(CN3CCCNCCNCCCNCC3)cc2)nc1", "SYSTEM TESTED": "C-X-C chemokine receptor type 4 (Homo sapiens, UniProt P61073, Y255A)", "UNIT OF MEASURE": "nM", "NUMERIC READOUT": 450}
